B1: ELF3 (parent)
chain: RLVYKFGKNSSGWKEEEVLQSRN

Variants of: B1
Assay: protein stability index of a GFP-peptide fusion (GPS, HEK-293T) (PSI 1-6); higher = more stable;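 further: lentivirally expressed fusions sorted by FACS into six bins by GFP to DsRed ratio, PSI derived from sequencing read proportions per bin multiplied by bin number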
Settings: c terminus: native
Decide by protein stability index: equal to or exceeding 3 means Criterion met, less means Criterion not met.

L19I Criterion not met
W13H Criterion met
V3A Criterion met
K8I Criterion not met
E15N Criterion not met
E15G Criterion not met
S21A Criterion not met
S21Q Criterion met

Quick check: does R1P have protein stability index greater than or equal to 3?
Criterion met

Quick check: does F6C have protein stability index greater than or equal to 3?
Criterion not met

Quick check: does F6E have protein stability index greater than or equal to 3?
Criterion met

Quick check: does L19D have protein stability index greater than or equal to 3?
Criterion met
